Parameter: furin cleavage Z-score. Scope: all listed entries.
EXPERIMENTAL SYSTEM: furin, P09958;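 further: purified furin at 1:10 enzyme:substrate in 50 mM HEPES pH 7.5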
Sequence (P09958 whole entry): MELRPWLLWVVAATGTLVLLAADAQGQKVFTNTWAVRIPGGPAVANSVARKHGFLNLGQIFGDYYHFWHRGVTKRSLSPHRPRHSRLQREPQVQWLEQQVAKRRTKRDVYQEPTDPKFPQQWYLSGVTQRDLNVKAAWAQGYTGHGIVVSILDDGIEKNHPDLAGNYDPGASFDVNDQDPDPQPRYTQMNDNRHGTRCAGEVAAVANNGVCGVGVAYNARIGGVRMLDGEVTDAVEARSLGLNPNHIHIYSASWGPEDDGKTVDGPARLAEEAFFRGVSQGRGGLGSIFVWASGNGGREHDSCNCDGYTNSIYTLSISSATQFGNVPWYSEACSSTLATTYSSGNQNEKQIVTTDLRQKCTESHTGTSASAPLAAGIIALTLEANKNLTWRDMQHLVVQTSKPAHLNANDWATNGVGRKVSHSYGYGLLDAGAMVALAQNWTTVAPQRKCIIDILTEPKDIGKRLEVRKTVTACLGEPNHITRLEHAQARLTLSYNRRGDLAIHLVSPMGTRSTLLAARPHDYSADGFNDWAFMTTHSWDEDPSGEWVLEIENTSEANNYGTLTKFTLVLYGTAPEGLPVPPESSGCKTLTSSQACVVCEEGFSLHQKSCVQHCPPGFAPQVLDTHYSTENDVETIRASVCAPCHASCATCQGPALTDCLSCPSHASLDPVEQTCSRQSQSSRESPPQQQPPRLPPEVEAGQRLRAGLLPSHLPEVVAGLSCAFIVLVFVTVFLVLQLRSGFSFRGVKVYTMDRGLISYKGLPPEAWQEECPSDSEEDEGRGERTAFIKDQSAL
PROTOCOL NOTES: furin cleavage Z-score vs untreated control; higher = more cleavage, active = 3.5 or more, inactive = 1 or less, 8 variable residues between constant flanks
TEST CONTEXT: 7.5 min
This is one part of the list. No count for the full screen is at hand.
READOUT KIND: furin cleavage Z-score

SEQUENCE RECORD | READOUT KIND | MEASURED RESULT
CAEVVTSTWGAGNASASA [HC2256] | furin cleavage Z-score | 0.945 (inactive)
CAEIPCHRPSAGNASASA [HC2324] | furin cleavage Z-score | 1.27
CANRCRMLRSAGNASASA [FS-469] | furin cleavage Z-score | 2.76
CASTDCSAHLAGNASASA [HC2511] | furin cleavage Z-score | -0.745 (inactive)
